// provenance: patent US20190248902A1

Molecular target: T1, human ASGR-1 mutant construct H203 (human, UniProt P07306 1-291)
T1 construct: Arg/Glu scanning: non-arginine residues were changed to arginine; Transiently expressed on CHO-S cells
T1 sequence: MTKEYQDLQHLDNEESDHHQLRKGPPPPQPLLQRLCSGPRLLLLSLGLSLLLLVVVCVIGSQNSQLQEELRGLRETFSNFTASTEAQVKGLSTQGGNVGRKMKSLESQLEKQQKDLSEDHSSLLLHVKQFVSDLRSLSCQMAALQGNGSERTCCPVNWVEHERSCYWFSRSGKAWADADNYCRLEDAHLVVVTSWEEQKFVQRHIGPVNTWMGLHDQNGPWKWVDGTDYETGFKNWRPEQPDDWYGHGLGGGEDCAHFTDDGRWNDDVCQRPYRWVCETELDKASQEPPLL
Assay: FACS ratio: 65C12 geomean / this mAb geomean
Experimental: Mutant hASGR-1 variants were constructed such that non-arginine residues were changed to arginine and where wild type arginine residues were mutated to glutamic acid. Each mutant hASGR-1 sequence was then cloned into a mammalian expression vector and used to transiently transfect CHOs cells. The ability of human ASGR-1-specific, ligand competing antibodies to bind to the mutant hASGR-1 proteins was assessed by FACS as described above. […]
Metric: Expression Normalization to mAb 65C12
When you answer, write just the number.

The cases that follow already have their Expression Normalization to mAb 65C12 on record.
{"columns": ["Binder", "Recorded result"],
 "data": [
  ["190F8 (antibody, V domains shown, mAb) VH: QVQLVESGGGVVQPGRSLRLSCAASGFTFSTYGMHWVRQAPGKGLEWVAVIWYDGSNKNYADSVKGRFTISRDNSKNTLYLQMNSLRAEDTAVYYCARDQGVGYDGLDVWGQGTTVTVSS VL: DIQMTQSPSSLSASVGDRVTITCRTSQGIGNYLAWFQQKPGKAPKSLLYKASSLQSGVPSKFSGSGSGTDFTLTISSLQPEDFATYYCQQYMTYPLTFGGGTKVEIK", 1.71],
  ["194C1 (antibody, V domains shown, mAb) VH: QVQLVESGGGVVQPGRSLRLSCAASGFTFSSYGMHWVRQAPGKGLEWVAVIWYDGSNEHYADSVKGRFTISRDNSKNTLYLQMNSLRAEDTAVYYCARNRGVGYYGLDVWGQGTTVTVSS VL: DIQMTQSPSSLSASVGDRVTITCRASQGISNYLAWFQQKPGKAPKSLIYAASSLQSGVPSKFSGSGSGTDFTLTISSLQPEDFATYYCLHYLTYPLTFGGGTKVEIK", 2.33]
]}

Would you kindly look at the next entry?
q: Name the recorded Expression Normalization to mAb 65C12 for 60C12 (antibody, V domains shown, mAb) VH: QVQLVESGGGVVQPGRSLRLSCAASGFTFSSYGMHWVRQAPGKGLEWVAVIWYDGSNKYYVDSVKGRFTISRDNSKNTLYLQMNSLRAEDTAVYYCARRYSRSWTGGMDVWGQGTTVTVSS VL: DIVMTQTPLSLSVTPGQPASISCKSSQSLLHSEGKTYLYWYLQKPGQPPQFLIYEVSNRFSGVPDRFSGSGSGTDFTLKISRVEAEDVGIYYCMQSIKYPLTFGGGTKVEIK .
a: 1.3
